human κ (CHO-KOR) opioid receptor (Homo sapiens, UniProt P41145) data, read-out Ki
Sequence (P41145 whole entry): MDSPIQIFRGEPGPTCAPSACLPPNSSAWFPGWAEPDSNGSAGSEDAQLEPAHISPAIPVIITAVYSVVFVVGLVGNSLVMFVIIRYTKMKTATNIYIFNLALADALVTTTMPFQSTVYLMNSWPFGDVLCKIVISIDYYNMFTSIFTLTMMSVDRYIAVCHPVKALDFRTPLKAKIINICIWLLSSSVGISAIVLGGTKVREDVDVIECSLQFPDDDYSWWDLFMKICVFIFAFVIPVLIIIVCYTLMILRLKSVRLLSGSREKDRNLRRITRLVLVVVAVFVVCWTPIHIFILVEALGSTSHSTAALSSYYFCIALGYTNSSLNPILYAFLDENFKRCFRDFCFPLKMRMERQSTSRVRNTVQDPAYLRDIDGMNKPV
observed-property: Ki (nM)

[[record]]
compound = "COc1cc(Cc2ccccc2)cc2c1NCC[C@H]2NC(=O)[C@@H](N)Cc1c(C)cc(O)cc1C [Compound 1063]"
target_or_test_system = "human κ (CHO-KOR) opioid receptor (Homo sapiens, UniProt P41145)"
value = 29.9

[[record]]
compound = "CCCCCCc1ccc2c(c1)[C@H](NC(=O)[C@@H](N)Cc1c(C)cc(O)cc1C)CCN2 [Compound 1011]"
target_or_test_system = "human κ (CHO-KOR) opioid receptor (Homo sapiens, UniProt P41145)"
value = 15.1

[[record]]
compound = "Cc1cc(O)cc(C)c1C[C@H](N)C(=O)N[C@@H]1CCNc2c1cc(Cc1ccccc1)cc2C(F)(F)F [Compound 1129]"
target_or_test_system = "human κ (CHO-KOR) opioid receptor (Homo sapiens, UniProt P41145)"
value = 21

[[record]]
compound = "Cc1cc(O)cc(C)c1C[C@H](N)C(=O)N[C@@H]1CCNc2c1cc(Cc1ccccc1)cc2C(C)(C)C [Compound 1057]"
target_or_test_system = "human κ (CHO-KOR) opioid receptor (Homo sapiens, UniProt P41145)"
value = 64.7

[[record]]
compound = "CC(=O)N1CC[C@@H](NC(=O)[C@@H](N)Cc2c(C)cc(O)cc2C)c2cc(Oc3ccccc3)ccc21 [Compound 1019]"
target_or_test_system = "human κ (CHO-KOR) opioid receptor (Homo sapiens, UniProt P41145)"
value = 33

[[record]]
compound = "Cc1cc(O)cc(C)c1C[C@H](N)C(=O)N[C@H]1CCNc2cc(Cc3ccccc3)ccc21 [Compound 1024]"
target_or_test_system = "human κ (CHO-KOR) opioid receptor (Homo sapiens, UniProt P41145)"
value = 1030

[[record]]
compound = "Cc1cc(O)cc(C)c1C[C@H](N)C(=O)N[C@@H]1CCNc2ccc(CN3CCNCC3)cc21 [Compound 1059]"
target_or_test_system = "human κ (CHO-KOR) opioid receptor (Homo sapiens, UniProt P41145)"
value = 11.7

[[record]]
compound = "CC(=O)N1CC[C@@H](NC(=O)[C@@H](N)Cc2c(C)cc(O)cc2C)c2cc(Cc3ccccc3)cc(C)c21 [Compound 1055]"
target_or_test_system = "human κ (CHO-KOR) opioid receptor (Homo sapiens, UniProt P41145)"
value = 80

[[record]]
compound = "Cc1cc(O)cc(C)c1C[C@H](N)C(=O)N[C@@H]1CCNc2ccc(Cn3n[n+]([O-])c4ccc(Cl)cc43)cc21 [Compound 1047]"
target_or_test_system = "human κ (CHO-KOR) opioid receptor (Homo sapiens, UniProt P41145)"
value = 22.5

[[record]]
compound = "Cc1cc(O)cc(C)c1C[C@H](N)C(=O)N[C@@H]1CCNc2ccc(S(=O)(=O)c3ccccc3)cc21 [Compound 1052]"
target_or_test_system = "human κ (CHO-KOR) opioid receptor (Homo sapiens, UniProt P41145)"
value = 26

[[record]]
compound = "Cc1cc(O)cc(C)c1C[C@H](N)C(=O)N[C@@H]1CCCc2ccc(-c3cccc4ccccc34)cc21 [Compound 1115]"
target_or_test_system = "human κ (CHO-KOR) opioid receptor (Homo sapiens, UniProt P41145)"
value = 131

[[record]]
compound = "Cc1cc(O)cc(C)c1C[C@H](N)C(=O)N[C@@H]1CCNc2ccc(Cc3c(Cl)cccc3Cl)cc21 [Compound 1032]"
target_or_test_system = "human κ (CHO-KOR) opioid receptor (Homo sapiens, UniProt P41145)"
value = 4.85

[[record]]
compound = "CCc1cc(Cc2ccccc2)cc2c1NCC[C@H]2NC(=O)[C@@H](N)Cc1c(C)cc(O)cc1C [Compound 1127]"
target_or_test_system = "human κ (CHO-KOR) opioid receptor (Homo sapiens, UniProt P41145)"
value = 44

[[record]]
compound = "Cc1cc(O)cc(C)c1C[C@H](N)C(=O)N(C)[C@H]1CCNc2ccc(Cc3ccccc3)cc21 [Compound 1002]"
target_or_test_system = "human κ (CHO-KOR) opioid receptor (Homo sapiens, UniProt P41145)"
value = 4.1

[[record]]
compound = "Cc1cc(O)cc(C)c1C[C@H](N)C(=O)N[C@@H]1CCNc2ccc(CN3CCC4(CCCCC4)C3)cc21 [Compound 1105]"
target_or_test_system = "human κ (CHO-KOR) opioid receptor (Homo sapiens, UniProt P41145)"
value = 1.66


Hello, the source for this data is patent US10519114B2, in case you need it.
